Assay: Unbound clearance in male Wistar Han rat at 0.05 mg/kg, iv
Assay type: ADME, organism-based
Conditions: in vivo
CL free values for the compounds below.
Response body: numeric value in mL/min/kg, unit text excluded.

Please review the entries below; each comes with its answer.
compound	endpointResult
CC(C(=O)Nc1ccc(Cl)cc1)N1CCC2C(CCN2C(=O)OC2CC2)C1 (stereo in doubt; 38)	2394
CC(C(=O)Nc1ccc(Cl)cc1)N1CCC2C(CCCN2c2ccnc(C(F)(F)F)n2)C1 (stereo in doubt; 34)	13004
Cc1nccc(N2CCCC3CC(C4(C(=O)Nc5ccc(F)cc5)CCC4)CCC32)n1 (stereo in doubt; 16)	1884

With those in mind, consider the next compound.
Endpoint output: CL free of Cc1nccc(N2CCCC3CN(C(C)C(=O)Nc4ccc(Cl)cc4)CCC32)n1 (stereo in doubt; 32) . Value?
2381

---

Assay: Clearance in Beagle dog at 0.05 mg/kg, iv
Assay type: ADME, organism-based, Canis lupus familiaris
Conditions: in vivo
outcomeMeasure: clearance (mL/min/kg)
Form entry: value (mL/min/kg) — number only.

Looking for the measured clearance of CC(C(=O)Nc1ccc(Cl)cc1)N1CCC2C(CCCN2C(=O)OC2CC2)C1 (stereo in doubt; 27) , can you help?
9

---

Molecular target: Indoleamine 2,3-dioxygenase 1 (Homo sapiens, UniProt P14902)
Sequence (P14902 whole entry): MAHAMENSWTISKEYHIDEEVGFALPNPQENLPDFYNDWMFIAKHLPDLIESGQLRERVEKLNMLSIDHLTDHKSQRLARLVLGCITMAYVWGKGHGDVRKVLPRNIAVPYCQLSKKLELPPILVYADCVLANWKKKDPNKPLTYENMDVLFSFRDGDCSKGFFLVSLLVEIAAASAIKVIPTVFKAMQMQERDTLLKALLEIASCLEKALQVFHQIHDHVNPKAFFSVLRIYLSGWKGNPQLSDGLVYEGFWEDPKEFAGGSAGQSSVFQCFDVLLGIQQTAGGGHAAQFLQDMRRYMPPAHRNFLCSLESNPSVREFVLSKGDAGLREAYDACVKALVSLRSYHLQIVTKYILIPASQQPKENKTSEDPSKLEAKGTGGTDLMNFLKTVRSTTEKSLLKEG
Assay: Inhibition of IDO1 in human HeLa cells assessed as production of N-formylkynurenine using tryptophan as substrate in presence of inactivated fetal bovine serum
Format: cell-based
outcomeMeasure: pIC50
Scale: pIC50 equals -log10([C]), with [C] in mol/L.

molecule	endpointResult
O=C(CN1CCC2C(CCCN2C(=O)c2cccc(Cl)c2)C1)Nc1ccc(F)cc1 (stereo in doubt; 23)	8.41

# pIC50 lookup, item O=C(C1CC1)N1CCCC2CC(C3(C(=O)Nc4ccc(F)cc4)CCC3)CCC21 (stereo in doubt; 14)
6.94

I have this molecule here, Cc1nccc(-n2ncc3c2CCN(C(C)C(=O)Nc2ccc(Cl)cc2)C3)n1 (stereo in doubt; 42) , and I need its recorded pIC50.
4.56

Would you mind telling me what pIC50 value was observed for CC(C(=O)Nc1ccc(Cl)cc1)N1CCC2C(CCCN2C(=O)OC2CC2)C1 (stereo in doubt; 28) ?
7.49

For CC(C(=O)Nc1ccc(Cl)cc1)N1CCC2C(CCN2C(=O)OC2CC2)C1 (stereo in doubt; 40) , what is its reported pIC50?
5.94

Record request: pIC50 value, item Cc1nccc(N2CCCC3CN(C(C)C(=O)Nc4ccc(Cl)cc4)CCC32)n1 (stereo in doubt; 31)
8.54

Please report the recorded pIC50 for O=C(c1cccc(Cl)c1)N1CCCC2CC(C3(C(=O)Nc4ccc(F)cc4)CCC3)CCC21 (stereo in doubt; 7) .
8.62

Consider the molecule shown here: CC(C(=O)Nc1ccc(Cl)cc1)N1CCC2C(CCCN2c2ccnc(C(F)(F)F)n2)C1 (stereo in doubt; 33) What is its recorded pIC50?
7.82

---

Biological target: Indoleamine 2,3-dioxygenase 1 (Homo sapiens)
Experiment: Inhibition of IDO1 in human whole blood assessed as unbound concentration
Assay type: tissue-based
Here the recorded pIC50 is given for each entry.
Note: pIC50 values are expressed as the negative base-10 logarithm of concentration in M.

molecule	measuredOn	pIC50
O=C(c1cccc(Cl)c1)N1CCCC2CC(C3(C(=O)Nc4ccc(F)cc4)CCC3)CCC21 (stereo in doubt; 7)	Indoleamine 2,3-dioxygenase 1 (Homo sapiens)	9.01
CC(C(=O)Nc1ccc(Cl)cc1)N1CCC2C(CCCN2C(=O)OC2CC2)C1 (stereo in doubt; 27)	Indoleamine 2,3-dioxygenase 1 (Homo sapiens)	9.14
O=C(C1CC1)N1CCCC2CC(C3(C(=O)Nc4ccc(F)cc4)CCC3)CCC21 (stereo in doubt; 12)	Indoleamine 2,3-dioxygenase 1 (Homo sapiens)	9.07
Cc1nccc(N2CCCC3CC(C4(C(=O)Nc5ccc(F)cc5)CCC4)CCC32)n1 (stereo in doubt; 15)	Indoleamine 2,3-dioxygenase 1 (Homo sapiens)	9.54
C[C@@H](C(=O)Nc1ccc(F)cc1)C1CCC2C(CCCN2C(=O)c2cccc(Cl)c2)C1 (stereo in doubt; 3)	Indoleamine 2,3-dioxygenase 1 (Homo sapiens)	9.89

Give pIC50 (Indoleamine 2,3-dioxygenase 1 (Homo sapiens)) of the following molecule: O=C(Nc1ccc(F)cc1)C1(C2CCC3C(CCCN3c3ccnc(C(F)(F)F)n3)C2)CCC1 (stereo in doubt; 20)
10.00

---

Target: Indoleamine 2,3-dioxygenase 1 (Homo sapiens)
Assay: Inhibition of IDO1 in human HeLa cells assessed as production of N-formylkynurenine using tryptophan as substrate in presence of inactivated fetal bovine serum
Assay type: cell-based
Listing of recorded IC50 by entry.
API: value field is a number in nM; no unit string.

Below: 5 compounds and their reported IC50.
compound	IC50 / nM
Cc1nccc(N2CCCC3CN(C(C)C(=O)Nc4ccc(Cl)cc4)CCC32)n1 (stereo in doubt; 32)	12
CC(C(=O)Nc1ccc(Cl)cc1)N1CCC2C(CCCN2c2ccnc(C(F)(F)F)n2)C1 (stereo in doubt; 34)	3.6
CC(C(=O)Nc1ccc(Cl)cc1)N1CCC2C(CCCN2C(=O)OC2CC2)C1 (stereo in doubt; 26)	9.1
Cc1nccc(N2CCCC3CC(C4(C(=O)Nc5ccc(F)cc5)CCC4)CCC32)n1 (stereo in doubt; 17)	32
CC(C(=O)Nc1ccc(Cl)cc1)N1CCC2C(CCCN2c2ccnc(C(F)(F)F)n2)C1 (stereo in doubt; 36)	5.4

Please provide the recorded IC50 for O=C(Nc1ccc(F)cc1)C1(C2CCC3C(CCCN3c3ccnc(C(F)(F)F)n3)C2)CCC1 (stereo in doubt; 21) , tested on Indoleamine 2,3-dioxygenase 1 (Homo sapiens).
2.6

Request - read-out IC50 | tested on Indoleamine 2,3-dioxygenase 1 (Homo sapiens) | compound Cc1nccc(N2CCCC3CC(C4(C(=O)Nc5ccc(F)cc5)CCC4)CCC32)n1 (stereo in doubt; 16)
4.2

---

Experiment: Unbound clearance in male Wistar Han rat at 0.05 mg/kg, iv
Format: ADME, organism-based
Conditions: in vivo
outcomeMeasure: CL free (L/h/kg)
Could you give me the number in L/h/kg? Just the number is fine.

Known results for compounds:
compound	CL free (L/h/kg)
O=C(Nc1ccc(F)cc1)C1(C2CCC3C(CCCN3c3ccnc(C(F)(F)F)n3)C2)CCC1 (stereo in doubt; 22)	357.1
CC(C(=O)Nc1ccc(Cl)cc1)N1CCC2C(CCN2C(=O)OC2CC2)C1 (stereo in doubt; 39)	39.8
O=C(CN1CCC2C(CCCN2C(=O)c2cccc(Cl)c2)C1)Nc1ccc(F)cc1 (stereo in doubt; 24)	84.06
CC(C(=O)Nc1ccc(Cl)cc1)N1CCC2C(CCCN2C(=O)OC2CC2)C1 (stereo in doubt; 27)	96.78
O=C(Nc1ccc(F)cc1)C1(C2CCC3C(CCCN3c3ccnc(C(F)(F)F)n3)C2)CCC1 (stereo in doubt; 20)	592.7

Reported CL free, compound C[C@@H](C(=O)Nc1ccc(F)cc1)C1CCC2C(CCCN2C(=O)c2cccc(Cl)c2)C1 (stereo in doubt; 3) : ____
265.6

Reported CL free, compound O=C(Nc1ccc(F)cc1)C1(C2CCC3C(CCCN3c3ccnc(C(F)(F)F)n3)C2)CCC1 (stereo in doubt; 21) : ____
431

Fill in the blank: the reported CL free of CC(C(=O)Nc1ccc(Cl)cc1)N1CCC2C(CCCN2c2ccnc(C(F)(F)F)n2)C1 (stereo in doubt; 36) is ____.
1666

---

List of pIC50 values.
Target: Indoleamine 2,3-dioxygenase 1 (Homo sapiens, UniProt P14902)
Assay: Inhibition of IDO1 in human HeLa cells assessed as production of N-formylkynurenine using tryptophan as substrate in presence of inactivated fetal bovine serum
Assay type: cell-based
Conceptually, pIC50 converts a concentration in mol/L into minus its log10.

compound	measuredOn	pIC50
Cc1nccc(N2CCCC3CC(C4(C(=O)Nc5ccc(F)cc5)CCC4)CCC32)n1 (stereo in doubt; 18)	Indoleamine 2,3-dioxygenase 1 (Homo sapiens, UniProt P14902)	8.28
O=C(c1cccc(Cl)c1)N1CCCC2CC(C3(C(=O)Nc4ccc(F)cc4)CCC3)CCC21 (stereo in doubt; 10)	Indoleamine 2,3-dioxygenase 1 (Homo sapiens, UniProt P14902)	7.85
O=C(C1CC1)N1CCCC2CC(C3(C(=O)Nc4ccc(F)cc4)CCC3)CCC21 (stereo in doubt; 12)	Indoleamine 2,3-dioxygenase 1 (Homo sapiens, UniProt P14902)	8.82
Cc1nccc(N2CCCC3CN(C(C)C(=O)Nc4ccc(Cl)cc4)CCC32)n1 (stereo in doubt; 29)	Indoleamine 2,3-dioxygenase 1 (Homo sapiens, UniProt P14902)	6.52

Value lookup for pIC50; key = O=C(CN1CCC2C(CCCN2C(=O)c2cccc(Cl)c2)C1)Nc1ccc(F)cc1 (stereo in doubt; 24)
8.70

Requested field: pIC50. Item: Cc1nccc(N2CCCC3CN(C(C)C(=O)Nc4ccc(Cl)cc4)CCC32)n1 (stereo in doubt; 30)
7.40

What value of pIC50 has been recorded for this entry: O=C(Nc1ccc(F)cc1)C1(C2CCC3C(CCCN3c3ccnc(C(F)(F)F)n3)C2)CCC1 (stereo in doubt; 20)
8.72

Any idea what its pIC50 is? The compound is C[C@@H](C(=O)Nc1ccc(F)cc1)C1CCC2C(CCCN2C(=O)c2cccc(Cl)c2)C1 (stereo in doubt; 4)
8.72

Give its pIC50 value. Item: C[C@@H](C(=O)Nc1ccc(F)cc1)C1CCC2C(CCCN2C(=O)c2cccc(Cl)c2)C1 (stereo in doubt; 6)
8.64

Any idea what its pIC50 is? The compound is CC(C(=O)Nc1ccc(Cl)cc1)N1CCC2C(CCN2C(=O)OC2CC2)C1 (stereo in doubt; 39)
6.74

Returns the measured pIC50 for the input compound. Input: C[C@@H](C(=O)Nc1ccc(F)cc1)C1CCC2C(CCCN2C(=O)c2cccc(Cl)c2)C1 (stereo in doubt; 5)
8.68

Suppose we examine the compound O=C(c1cccc(Cl)c1)N1CCCC2CC(C3(C(=O)Nc4ccc(F)cc4)CCC3)CCC21 (stereo in doubt; 8) ; what pIC50 value has been reported?
8.52

What does the record list as pIC50 for CC(C(=O)Nc1ccc(Cl)cc1)N1CCC2C(CCCN2C(=O)OC2CC2)C1 (stereo in doubt; 25) ?
8.43

Return reported pIC50; argument: Cc1nccc(-n2ncc3c2CCN(C(C)C(=O)Nc2ccc(Cl)cc2)C3)n1 (stereo in doubt; 41)
5.98

State the recorded pIC50 for this entry: CC(C(=O)Nc1ccc(Cl)cc1)N1CCC2C(CCCN2c2ccnc(C(F)(F)F)n2)C1 (stereo in doubt; 35)
6.37

Requested read-out: pIC50. Entry: C[C@@H](C(=O)Nc1ccc(F)cc1)C1CCC2C(CCCN2C(=O)c2cccc(Cl)c2)C1 (stereo in doubt; 3)
9.00

Please report the recorded pIC50 for O=C(C1CC1)N1CCCC2CC(C3(C(=O)Nc4ccc(F)cc4)CCC3)CCC21 (stereo in doubt; 13) .
7.72
